# STUDY_SYSTEM: UniProtKB P20272
# Sequence (P20272 whole entry): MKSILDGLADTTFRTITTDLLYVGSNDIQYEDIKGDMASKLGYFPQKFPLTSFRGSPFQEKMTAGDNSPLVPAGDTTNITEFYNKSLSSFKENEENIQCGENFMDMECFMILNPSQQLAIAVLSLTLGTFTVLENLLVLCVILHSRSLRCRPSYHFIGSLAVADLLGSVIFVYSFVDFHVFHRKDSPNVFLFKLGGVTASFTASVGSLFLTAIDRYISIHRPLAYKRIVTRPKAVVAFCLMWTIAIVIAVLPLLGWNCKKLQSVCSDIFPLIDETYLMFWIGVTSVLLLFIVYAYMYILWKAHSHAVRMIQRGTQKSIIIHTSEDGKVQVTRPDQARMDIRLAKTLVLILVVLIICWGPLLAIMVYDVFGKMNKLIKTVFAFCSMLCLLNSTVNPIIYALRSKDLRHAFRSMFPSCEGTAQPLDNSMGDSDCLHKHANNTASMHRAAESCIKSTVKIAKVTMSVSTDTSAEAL

COMPOUND | Ki, µM
N/C(=N\Cc1ccccc1)C(/N=N/c1ccccc1)C(=O)NCc1ccccc1 (stereo not shown) [Formula II] | 4.18
